target-or-system: F protein of human metapneumovirus strain JPS02-76 (type B1), on infectious virus (human metapneumovirus, strain JPS02-76 …, UniProt Q6WB98 19-539)
assay-method-text: cell-based or functional assay
IC60, neutralizing activity (hMPV infection of LLC-MK2 cells; GraphPad Prism 6) overview
outcome-measure: IC60, neutralizing activity (hMPV infection of LLC-MK2 cells; GraphPad Prism 6) (ng/mL)

binder	quantitative-result
EV046147 (antibody, human IgG1, lambda, V domains shown) VH: QVQLVQSGAEVKKPGASVKVSCKASGYTFSVYGISWVRQAPGHGLEWMGWISAYNGDRGYAQKVQGRITMTTDTSASTAYMELRSLTSDDTAVYYCATTSSGVPGIYWGQGSLVTVSS VL: SYALVQPPSVSVSPGQTARITCFGPALPKKYAYWYQHKSGQAPMLVIYEDTKRPSGIPQRFSGSTSGATATLTIRGAQVEDEADYYCYSTDSSGHERVFGGGTKLTVLG	514
EV046141 (antibody, human IgG1, lambda, V domains shown) VH: QVQLVQSGAEVKKPGASVKVSCKASGYTFADYYIHWLRQAPGQGLEWLGRINPSNSRTTYPQKFQGRVTVTRDTSTSTVYMELSSLRSADTAVYYCARDGLRMGYYYMDVWGKGTTVTVSS VL: QSVLTQPPSVSGAPGQRVTISCTGSSSNIGAGYDVHWYQQIPGTAPKLLIFGNYNRPSGVPDRFSASKSGTSASLAITGLQAEDEAHYYCQSYDTTLDGAVFGGGTKLTVLG	883
EV046120 (antibody, human IgG1, lambda, V domains shown) VH: EVQLVESGGGLVKPGGSLRLSCAASGFTFSSYSMNWVRQAPGKGLEWVSSISSSSSYIYYADSLKGRFTVSRDNAKKSLYLQMNSLRAEDTAVYYCARVDYGTNSEVGRFDPWGQGTLVTVSS VL: QSVLTQPPSVSGTPGQRVTISCTGSSSNIGAGYAVHWYQQLPGTAPKLLIYDSINRPSGVPDRFSGSKSGTSASLAITGLQTEDEADYYCHSYDRSLSGSVFGGGTKLTVLG	344
